Catalogue of compounds with associated IC50
# Species on record: Mus musculus
# Test summary: Inhibitory activity before protection from beta-CNS-induced inactivation in MVD
# Type: functional
# Assay context: Mus musculus
Supply the numeric figure in nM, leaving out any unit text.

• CC(C)C[C@H](NC(=O)[C@H](Cc1ccccc1)NC(=O)CNC(=O)[C@@H](CO)NC(=O)[C@@H](N)Cc1ccc(O)cc1)C(=O)N[C@H](C(=O)O)[C@@H](C)O = 0.38

For record `C[C@@H](NC(=O)[C@@H](N)Cc1ccc(O)cc1)C(=O)NCC(=O)N(C)[C@@H](Cc1ccccc1)C(=O)NCCO` the listed IC50 is 100

----------
# Study system: UniProt:P33535
# Sequence (P33535 whole entry): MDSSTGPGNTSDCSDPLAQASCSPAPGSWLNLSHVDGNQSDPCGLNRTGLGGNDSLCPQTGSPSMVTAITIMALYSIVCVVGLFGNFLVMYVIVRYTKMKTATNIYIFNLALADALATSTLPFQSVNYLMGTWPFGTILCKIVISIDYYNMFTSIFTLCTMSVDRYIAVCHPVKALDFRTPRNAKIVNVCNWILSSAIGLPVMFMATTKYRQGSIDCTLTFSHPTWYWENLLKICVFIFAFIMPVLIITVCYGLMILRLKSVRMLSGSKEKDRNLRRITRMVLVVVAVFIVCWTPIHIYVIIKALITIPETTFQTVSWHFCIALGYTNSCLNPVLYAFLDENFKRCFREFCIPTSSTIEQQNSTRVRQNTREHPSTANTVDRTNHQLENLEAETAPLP
Numbered stars: 1 amine (or outer) side, 2 acyl side, 3 side chain; on linkers, the order of the positions; unused ones are H or OH. Square brackets hold non-standard residues; d marks the D form. Peptide text beside a SMILES is read from it. X1 = CC[C@H](O)[C@H](N[*:1])C(=O)[*:2]; azaGly = NNC(=O)O
Strictly below 40 nM in Ki: T. Otherwise: F.

Examples with answers:
• CSCC[C@@H](NC(=O)[C@@H](N)Cc1ccc(O)cc1)C(=O)NCC(=O)NCCC(C)C = T
• CC(C)C[C@H](NC(=O)[C@H](CC(C)C)NC(=O)[C@H](Cc1ccccc1)NC(=O)CNC(=O)[C@H](NC(=O)[C@@H](N)Cc1ccc(O)cc1)[C@H](C)O)C(=O)O = T
• CC(C)CC(C)NC(=O)CNC(=O)[C@@H](CO)NC(=O)[C@@H](N)Cc1ccc(O)cc1 (some centres not stated) = F
• CC(C)C[C@H](NC(=O)[C@H](Cc1ccccc1)NC(=O)CNC(=O)[C@H](NC(=O)[C@@H](N)Cc1ccc(O)cc1)[C@H](C)O)C(=O)N[C@H](C(=O)O)[C@@H](C)O = T
• CC(C)C[C@H](NC(=O)[C@H](Cc1ccccc1)NC(=O)CNC(=O)[C@H](NC(=O)[C@@H](N)Cc1ccc(O)cc1)[C@H](C)O)C(=O)N1C[C@H](O)C[C@H]1C(=O)O = F
• CC(C)CCNC(=O)CNC(=O)[C@@H](C)NC(=O)[C@@H](N)Cc1ccc(O)cc1 = T

# strict comparison: is reported Ki < 40 nM? input = CC[C@H](O)[C@H](NC(=O)[C@@H](N)Cc1ccc(O)cc1)C(=O)NCC(=O)N[C@@H](Cc1ccccc1)C(=O)N[C@@H](CC(C)C)C(=O)N[C@H](C(=O)O)[C@@H](C)O (H-Y[X1]GFLT-OH)
T

# strict comparison: is reported Ki < 40 nM? input = CC(C)CC(C)NC(=O)CNC(=O)[C@@H](COC(C)(C)C)NC(=O)[C@@H](N)Cc1ccc(O)cc1 (some centres not stated)
T

# strict comparison: is reported Ki < 40 nM? input = CC(C)C[C@H](NC(=O)[C@H](Cc1ccccc1)NC(=O)CNC(=O)NNC(=O)[C@@H](N)Cc1ccc(O)cc1)C(=O)N[C@H](C(=O)O)[C@@H](C)O (H-Y[azaGly]GFLT-OH)
F

# strict comparison: is reported Ki < 40 nM? input = `CC(C)C[C@H](NC(=O)[C@H](CC(C)C)NC(=O)[C@H](Cc1ccccc1)NC(=O)CNC(=O)[C@@H](CO)NC(=O)[C@@H](N)Cc1ccc(O)cc1)C(=O)O`
F

# strict comparison: is reported Ki < 40 nM? input = `CC(C)C[C@@H](C(=O)N[C@H](C(=O)O)[C@@H](C)O)N(C)C(=O)[C@H](Cc1ccccc1)NC(=O)CNC(=O)[C@H](NC(=O)[C@@H](N)Cc1ccc(O)cc1)[C@H](C)O`
F

# strict comparison: is reported Ki < 40 nM? input = `CC(C)C[C@H](NC(=O)[C@H](Cc1ccccc1)NC(=O)CNC(=O)[C@H](NC(=O)[C@@H](N)Cc1ccc(O)cc1)[C@H](C)O)C(=O)N[C@@H](CO)C(=O)O`
F
